B1: HDV Ribozyme (parent)
chain: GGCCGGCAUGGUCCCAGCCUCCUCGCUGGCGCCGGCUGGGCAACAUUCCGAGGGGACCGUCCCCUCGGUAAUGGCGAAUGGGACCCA

# Variants of: B1
# Assay: self-cleavage, relative activity (ratio to wild type); higher = more cleavage; co-transcriptional
Provide the recorded self-cleavage for the entries that follow.
Give bare numbers.

In the examples that follow, each entry is paired with its recorded self-cleavage.
Noted for G10U C63U : its self-cleavage reads 0.686

Entry under test: C14G A51G . Its self-cleavage was 0.475

Query G28U C41A yields self-cleavage of 0.138

Give self-cleavage for all variants that follow.
1. U27C C86G
2. C3G G40U
3. C15A G80U
4. A42G C48U
5. C19A G31U
6. C7U G34A

### Response
[1.2, 0.442, 0.899, 0.525, 0.192, 0.0302]
